Origin of measurements: patent US20230235048A1

Target: T1, extracellular domain (ECD) of recombinant human Sortilin with a C-terminal HIS tag (ECD-huSortilin-HIS) (human, UniProt Q99523 78-755)
T1 construct: Bought (R&D Systems); also called human sortilin-ECD; not shown: C-terminal HIS tag
T1 sequence: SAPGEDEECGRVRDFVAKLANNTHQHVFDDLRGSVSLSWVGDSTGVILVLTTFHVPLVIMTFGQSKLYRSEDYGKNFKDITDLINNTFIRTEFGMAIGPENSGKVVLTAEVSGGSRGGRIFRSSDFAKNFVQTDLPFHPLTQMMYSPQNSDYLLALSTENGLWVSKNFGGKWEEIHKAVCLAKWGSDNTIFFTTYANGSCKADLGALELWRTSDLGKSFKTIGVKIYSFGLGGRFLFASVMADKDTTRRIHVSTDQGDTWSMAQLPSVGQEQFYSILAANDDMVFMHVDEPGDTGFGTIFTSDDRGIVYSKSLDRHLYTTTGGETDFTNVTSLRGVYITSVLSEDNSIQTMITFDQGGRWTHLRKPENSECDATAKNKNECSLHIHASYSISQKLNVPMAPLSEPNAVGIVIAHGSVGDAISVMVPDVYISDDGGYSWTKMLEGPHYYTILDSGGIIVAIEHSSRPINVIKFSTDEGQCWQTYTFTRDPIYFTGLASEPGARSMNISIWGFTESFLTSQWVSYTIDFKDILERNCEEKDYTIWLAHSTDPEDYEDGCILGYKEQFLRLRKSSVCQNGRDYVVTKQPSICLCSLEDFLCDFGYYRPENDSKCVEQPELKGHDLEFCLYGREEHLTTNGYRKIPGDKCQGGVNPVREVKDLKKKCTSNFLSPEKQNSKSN
Experiment: ELISA, ECD-huSortilin-HIS coated at 1 ug/mL, goat anti-human IgG-HRP, chemiluminescence
The entries below are paired with their reported EC50.
Express the result in µg/mL but write the number alone.

humanized 11M14 hu11M14VHv1b/hu11M14VLv3b (antibody, V domains shown, Human IgG; also called 11M14H1bL3b; hu11M14H1bL3b) VH: EVQLVESGGGLVQPGGSLRLSCAASGFTFNIYGMSWVRQAPGKGLEWVATISSGGIYTYYPDILKGRFTISRDNAKNSLYLQMNSLRAEDTAVYYCARHPGGAMDYWGQGTLVTVSS VL: DIQMTQSPSSLSASVGDRVTITCRVSENIYSNLAWYQQKPGKSPKLLVYAATNGADGVPSRFSGSGSGTDYTLTISSLQPEDFATYYCQHFWGTPPWTFGQGTKLEIK
0.07
humanized 11M14 hu11M14VHv3b/hu11M14VLv4b (antibody, V domains shown, Human IgG; also called 11M14H3bL4b) VH: EVQLVESGGGLVQPGGSLRLSCAASGFTFNIYGMSWVRQAPGKGLEWVATISSGGIYTYYPDILKGRFTISRDNAKNSLYGQMNSLRAEDTAVYYCARHPGGAMDYWGQGTLVTVSS VL: DIQMTQSPSSLSASVGDRVTITCRVSENIYSNLAWYQQKPGKSPKLLVYAATNIADGVPSRFSGSGSGTDYTLTISSLQPEDFATYYCQHFWGTPPWTFGQGTKLEIK
0.1

Lookup result for humanized 8H24 hu8H24VHv2/hu8H24VLv1 (antibody, V domains shown, Human IgG; also called 8H24H2L1) VH: QAQLVQSGAEVVKPGSSVKVSCKASGYTFTSYSMHWVRQAPGQGLEWIGAIYPGNDATSYNQKFKGRATLTVDKSTSTAYMELSSLRSEDTAVYFCAREGYYGSSFEAWFASWGQGTTVTVSS VL: DVVMTQTPLSLPVTPGEPASISCRSSQSIVHSNGNTYLEWYLQKPGQSPQLLIYKVSNRFSGVPDRFSGSGSGTDFTLKISRVEAEDVGVYYCFQGSHVLPTFGGGTKVEIK ; measured EC50: 0.06

Lookup result for humanized 5E20 hu5E20VHv2/hu5E20VLv2 (antibody, V domains shown, Human IgG; also called 5E20H2L2) VH: EVQLVESGGGLVQPGGSLRLSCAASGFTFSTYGMSWVRQAPGKGLEWVAIISSGGSYTYYSDTVKGRFTISRDNSKNSLYLQMNSLRAEDTAVYYCSRSSSHWYFDVWGQGTLVTVSS VL: DIQMTQSPSSVSASVGDRVTITCHASQGISSNIGWLQQKPGKAFKGLIYHGTNLKDGVPSRFSGSGSGADFTLTISSLQPEDFATYFCVQYAQFPYTFGQGTKVEIR ; measured EC50: 0.08

Lookup result for humanized 5E20 hu5E20VHv2/hu5E20VLv1 (antibody, V domains shown, Human IgG; also called 5E20H2L1) VH: EVQLVESGGGLVQPGGSLRLSCAASGFTFSTYGMSWVRQAPGKGLEWVAIISSGGSYTYYSDTVKGRFTISRDNSKNSLYLQMNSLRAEDTAVYYCSRSSSHWYFDVWGQGTLVTVSS VL: DIQMTQSPSSLSASVGDRVTITCHASQGISSNIGWLQQKPGKAFKGLIYHGTNLKDGVPSRFSGSGSGADFTLTISSLQPEDFATYFCVQYAQFPYTFGGGTKVEIR ; measured EC50: 0.12
